target: Short transient receptor potential channel 4 (Mus musculus) (UniProt Q9QUQ5); test: inhibitors of mouse TRPC4 channel, primary screen, Fluo4 calcium, HEK293 TRPC4beta/mu-opioid cells (AID 2247); conditions: DAMGO-evoked Fluo4 calcium flux, at 10 µM
Sequence (Q9QUQ5 whole entry, looked up): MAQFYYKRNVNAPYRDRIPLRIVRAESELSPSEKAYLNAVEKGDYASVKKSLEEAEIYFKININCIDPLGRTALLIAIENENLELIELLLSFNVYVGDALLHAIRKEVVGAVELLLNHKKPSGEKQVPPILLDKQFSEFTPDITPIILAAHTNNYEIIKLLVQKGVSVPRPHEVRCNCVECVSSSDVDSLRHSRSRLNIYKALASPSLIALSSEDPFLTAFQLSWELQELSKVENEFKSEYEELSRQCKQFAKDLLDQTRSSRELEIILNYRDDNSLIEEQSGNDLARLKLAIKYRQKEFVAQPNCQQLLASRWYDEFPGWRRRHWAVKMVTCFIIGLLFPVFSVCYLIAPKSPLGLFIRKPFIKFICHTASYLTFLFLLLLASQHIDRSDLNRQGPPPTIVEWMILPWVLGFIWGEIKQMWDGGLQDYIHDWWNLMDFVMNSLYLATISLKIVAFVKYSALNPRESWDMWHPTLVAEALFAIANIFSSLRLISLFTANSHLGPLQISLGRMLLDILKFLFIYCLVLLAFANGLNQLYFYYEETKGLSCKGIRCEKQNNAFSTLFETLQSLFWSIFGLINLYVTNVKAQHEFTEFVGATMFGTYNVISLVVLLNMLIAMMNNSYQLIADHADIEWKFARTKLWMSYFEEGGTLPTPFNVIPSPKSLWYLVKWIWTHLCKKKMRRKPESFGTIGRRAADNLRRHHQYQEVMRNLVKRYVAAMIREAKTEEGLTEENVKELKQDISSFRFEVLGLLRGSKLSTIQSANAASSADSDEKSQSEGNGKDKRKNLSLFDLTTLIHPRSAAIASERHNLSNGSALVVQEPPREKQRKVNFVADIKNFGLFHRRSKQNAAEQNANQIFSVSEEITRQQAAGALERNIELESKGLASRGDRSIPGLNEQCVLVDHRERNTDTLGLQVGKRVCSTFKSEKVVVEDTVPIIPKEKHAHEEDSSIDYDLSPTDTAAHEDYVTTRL
Among all 300,000 compounds or so, about 1,200 (0.4%) were called active.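 How the source made its calls: active means B-score over 3 SD under the library average, no early fluorescence shift, positive overall ratio signal; inactive means the rest.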 Shown is part of a subset that was picked to be rich in actives.
Possible outcomes: 1 for active, -1 for inactive

INSERT INTO assay_data (compound, assigned_category) VALUES
  ('COc1ccc(CCN2C(=O)C(C)=C(C)C2=O)cc1OC', -1),
  ('COc1ccc(-c2cc(C(=O)N(C)Cc3ccccc3)c3ccccc3n2)cc1', -1),
  ('O=C(CCN1CCc2ccccc2C(O)(c2ccccc2)C1)c1ccc2c(c1)OCCO2 (stereo not given)', 1),
  ('COc1ccc(-n2cc(CN(C)Cc3n[nH]c(=O)[nH]3)c(-c3cccc(F)c3)n2)cc1', -1),
  ('COc1ccc(CCN(C)CCN2C(=O)c3ccccc3C2=O)cc1OC', 1),
  ('COc1ccc(NC(=O)NC2CC3CCCC(C2)N3Cc2ccccc2)cc1 (stereo not given)', -1),
  ('CCC(O)C1CCN(Cc2cn(-c3ccc(OC)cc3)nc2-c2cccc(F)c2)CC1 (stereo not given)', 1),
  ('CN(C)c1ccc(NC(=O)CN2C3CCCC2CC(NC(=O)c2ccccc2)C3)cc1 (stereo not given)', 1),
  ('COc1ccc(CCN2C(=O)C3CC=C(C)CC3C2=O)cc1OC (stereo not given)', -1),
  ('COc1ccc(-n2cc(CNC3CCOCC3)c(-c3cccc(F)c3)n2)cc1', -1);

---

molecular target: Short transient receptor potential channel 4 (Mus musculus) (UniProt Q9QUQ5); assay: inhibitors of mouse TRPC4 channel, primary screen, Fluo4 calcium, HEK293 TRPC4beta/mu-opioid cells (AID 2247); conditions: DAMGO-evoked Fluo4 calcium flux, at 10 µM
In all, about 300,000 compounds went through this assay and about 1,200 (0.4%) were called active.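 The calls were made as follows: active = B-score over 3 SD under the library average, no early fluorescence shift, positive overall ratio signal; inactive = the rest.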 Shown is part of a subset that was picked to be rich in actives.
Classes used: active, inactive

INSERT INTO assay_data (compound, assigned_category) VALUES
  ('CCOC(=O)/C(C#N)=C/c1cn(CCC(=O)O)nc1-c1ccc(Br)cc1', 'inactive'),
  ('CC1C(=O)N2CCCc3cc(S(=O)(=O)NCc4ccc(F)cc4)cc1c32 (centres undefined)', 'inactive'),
  ('COc1ccc(NC(=O)CN(C)C(=O)c2cc(-c3ccc(C)o3)nc3ccccc23)cc1', 'inactive'),
  ('Cc1ccc(NS(=O)(=O)c2ccc(C)c(NC(=O)COc3ccc4ccccc4c3)c2)c(C)c1', 'inactive'),
  ('O=C(CN(Cc1ccc(Br)cc1)S(=O)(=O)c1ccccc1)NCc1ccncc1', 'inactive'),
  ('O=C(c1cc(C(=O)N2CCN(c3ccc(F)cc3)CC2)cc([N+](=O)[O-])c1)N1CCN(c2ccc(F)cc2)CC1', 'inactive'),
  ('OCC1(CCc2ccccc2)CCN(Cc2ccc3nsnc3c2)CC1', 'active'),
  ('O=C(CSc1ncnc2c1oc1ccccc12)NC1CCCC1', 'inactive'),
  ('CCn1c(COc2cccc(OC)c2)nnc1SCC(=O)N1CCOCC1', 'inactive'),
  ('COCCn1c(SC(C)C(=O)NC2CC2)nnc1-c1cccc(C)c1 (centres undefined)', 'inactive'),
  ('CC(C)Cc1nc(N2CCOCC2)c(C#N)c2c1CCC2', 'active'),
  ('CCN1CCN(CC(=O)Nc2sc3c(c2C#N)CCC3)CC1', 'inactive'),
  ('CC(C)c1ccc(S(=O)(=O)N2CCC3(CC2)OCCO3)cc1', 'inactive'),
  ('O=C(O)c1ccccc1C(=O)NC1=NN(c2ccccc2)CC1', 'inactive'),
  ('Cc1cccc(C2C3=C(CCCC3=O)N=C3c4ccccc4C(=O)C32)c1 (centres undefined)', 'inactive'),
  ('CC(C)Cc1nc(Cl)c(C#N)c2c1CCC2', 'inactive'),
  ('Cc1ccc(-n2c(C)cc(C(=O)CSc3nnc4ccccn34)c2C)cc1', 'inactive'),
  ('Cc1nc2c(c(C)nn2-c2ccccc2)c(C)c1C', 'inactive'),
  ('O=[N+]([O-])c1ccccc1S(=O)(=O)Nc1cccc2cccnc12', 'inactive'),
  ('CC(c1ccccn1)N(C)C(=O)c1ccc2nc(Cc3cccc(Cl)c3)oc2c1 (centres undefined)', 'inactive'),
  ('O=C(O)CCn1cc(/C=C/C(=O)c2ccc(Cl)cc2)c(-c2cccc(Br)c2)n1', 'active'),
  ('N#Cc1c(-c2ccccc2)nc(SCc2cccc(C(F)(F)F)c2)[nH]c1=O', 'inactive'),
  ('COc1ncnc2sc3c(c12)CCCC3', 'active'),
  ('CN1OC(COC(=O)c2ccc(Cl)cc2)CC1c1ccccc1 (centres undefined)', 'inactive'),
  ('COc1ccc(CNC(=O)[C@@H]2CC=C[C@@H]3CCN(C4CC4)C(=O)[C@@H]32)cc1', 'inactive'),
  ('Cc1nn(-c2ccccc2)c2[nH]c(C(F)(F)F)cc(=O)c12', 'active'),
  ('Cc1ccccc1N(C(=O)Cc1cccs1)C(C(=O)NC1CCCCC1)c1cn(C)nc1C (centres undefined)', 'inactive'),
  ('Cc1cc(C)c(S(=O)(=O)NCC(c2ccc3c(c2)OCO3)N2CCOCC2)c(C)c1 (centres undefined)', 'inactive'),
  ('Cc1ccnc(N2CCN(C(=O)CSc3nc4ccccc4nc3N3CCCCC3)CC2)c1', 'inactive'),
  ('CN(C)c1cc(N)c2ccccc2n1 (tested in a mixture with another compound)', 'active'),
  ('CN1CCNC(=O)C1CC(=O)N1CC=C(c2ccc(F)cc2)CC1 (centres undefined)', 'inactive'),
  ('NC(=O)c1c(NC(=O)CSc2nc(N)cc(=O)[nH]2)sc2c1CCCC2', 'inactive'),
  ('COc1cc(NS(=O)(=O)c2ccc3ccccc3c2)c2ncccc2c1', 'active'),
  ('O=C(c1cc2cc(F)ccc2[nH]1)N1CCN(c2ccc(F)cc2)CC1', 'inactive'),
  ('CC(C)c1nc(N2CCOCC2)c(C#N)c2c1COC(C)(C)C2', 'inactive'),
  ('Cc1nn(-c2ccccc2)c(=O)c2noc(C)c12', 'inactive'),
  ('Cc1ccc(CSc2nc(-c3ccccc3)c(C#N)c(=O)[nH]2)cc1', 'active'),
  ('COc1ccc(OC)c(C(C)NC(=S)Nc2ccc(S(=O)(=O)Nc3ncccn3)cc2)c1 (centres undefined)', 'inactive'),
  ('O=C(/C=C/NNC(=O)c1cccc(Br)c1)c1ccccc1', 'inactive'),
  ('O=C(Nc1cccc(S(=O)(=O)NC2=NCCC2)c1)C1CCCCC1', 'inactive'),
  ('CCc1ccc2oc(=O)cc(CN3CCCCC3C)c2c1 (centres undefined)', 'inactive'),
  ('CCCCCCCCCCOC(=O)Cn1c(COc2ccc(C)cc2)[n+](C)c2ccccc21', 'inactive'),
  ('CC(C)(O)C#Cc1ccc(CN2CCC(CO)(CCc3ccccc3)CC2)cc1', 'inactive'),
  ('CC(C)(C)NCc1cc(Br)ccc1OC1CCCC1', 'inactive');

---

target: Short transient receptor potential channel 4 (Mus musculus) (UniProt Q9QUQ5); test: inhibitors of mouse TRPC4 channel, primary screen, Fluo4 calcium, HEK293 TRPC4beta/mu-opioid cells (AID 2247); conditions: DAMGO-evoked Fluo4 calcium flux, at 10 µM; stronger effect = lower value
Screen size: about 300,000 compounds; about 1,200 (0.4%) were called active. The full list was thinned out, with actives kept by preference.
Value Kind: B-score

INSERT INTO results (compound, result_value) VALUES
  ('Nc1ccc(OCC(O)C[n+]2ccc(CCS(=O)(=O)[O-])cc2)cc1 (stereo not given)', 'inactive'),
  ('O=[N+]([O-])c1cccc(Nc2c3ccccc3nc3ccccc23)c1', '-7 (active)'),
  ('Cc1cccc2cc(CN(Cc3nnnn3Cc3ccccc3)C3CCCC3)c(=O)[nH]c12', '-7 (active)'),
  ('Cc1cccc2cc(CN(Cc3ccc4c(c3)OCO4)Cc3nnnn3C3CCCC3)c(=O)[nH]c12', 'inactive'),
  ('COc1cccc(N(CC(=O)NCc2ccccc2)C(=O)CCC(=O)Nc2nccs2)c1', 'inactive'),
  ('N#Cc1cccc(Nc2c3c(nc4ccccc24)CCCC3)c1', 'inactive'),
  ('N#CCCCn1c(O)c(N=NC(=O)C(O)c2ccccc2)c2ccccc21 (stereo not given)', 'inactive'),
  ('CC(=O)Oc1ccc(NC(=O)CCC2CCCCC2)c(C(=O)O)c1', '-6 (active)'),
  ('Cc1cc(NC(=O)CN2C(=O)NC(C)(CCc3ccccc3)C2=O)no1 (stereo not given)', 'inactive'),
  ('COc1ccc(NC(=O)CCCC2CCCCC2)c(OC)c1', 'inactive');

---

target: Short transient receptor potential channel 4 (Mus musculus); experiment: inhibitors of mouse TRPC4 channel, primary screen, Fluo4 calcium, HEK293 TRPC4beta/mu-opioid cells (AID 2247); conditions: DAMGO-evoked Fluo4 calcium flux, at 10 µM
About 1,200 (0.4%) of roughly 300,000 compounds were called active.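 The calls were made as follows: active = B-score over 3 SD under the library average, no early fluorescence shift, positive overall ratio signal; inactive = the rest.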 What follows is part of a selection rich in actives, with near analogues and random picks from the rest.
Labels: t for active, f for inactive

INSERT INTO assay_data (compound, tested_target, assigned_category) VALUES
  ('CCCCC(c1nnnn1CS(=O)(=O)c1ccc(C)cc1)N1CCC(C(N)=O)CC1 (configuration not stated)', 'Short transient receptor potential channel 4 (Mus musculus)', 'f'),
  ('Cc1ccc(S(=O)(=O)N(CC(O)CN2CCCCC2)c2cccc([N+](=O)[O-])c2)cc1 (configuration not stated)', 'Short transient receptor potential channel 4 (Mus musculus)', 'f'),
  ('Nc1ccc(Cl)c(S(=O)(=O)Nc2ccccc2Cl)c1', 'Short transient receptor potential channel 4 (Mus musculus)', 'f'),
  ('CCCCc1nc(SCC(=O)Nc2nnc(C(C)C)s2)n[nH]1', 'Short transient receptor potential channel 4 (Mus musculus)', 'f'),
  ('Cc1ccc(O)c(CNc2nc3ccccc3[nH]2)c1', 'Short transient receptor potential channel 4 (Mus musculus)', 't'),
  ('Cc1ccc(O)c(CNc2nc3ccccc3n2C)c1', 'Short transient receptor potential channel 4 (Mus musculus)', 'f'),
  ('O=C(COC(=O)c1ccc(F)cc1)NCCCc1ccccc1', 'Short transient receptor potential channel 4 (Mus musculus)', 'f');

The reported measurements were obtained from PubChem BioAssay AID2247.
